Biological target: human CaSR (Homo sapiens, UniProt P41180, E1011Q)
Sequence (P41180 20-1078 E1011Q): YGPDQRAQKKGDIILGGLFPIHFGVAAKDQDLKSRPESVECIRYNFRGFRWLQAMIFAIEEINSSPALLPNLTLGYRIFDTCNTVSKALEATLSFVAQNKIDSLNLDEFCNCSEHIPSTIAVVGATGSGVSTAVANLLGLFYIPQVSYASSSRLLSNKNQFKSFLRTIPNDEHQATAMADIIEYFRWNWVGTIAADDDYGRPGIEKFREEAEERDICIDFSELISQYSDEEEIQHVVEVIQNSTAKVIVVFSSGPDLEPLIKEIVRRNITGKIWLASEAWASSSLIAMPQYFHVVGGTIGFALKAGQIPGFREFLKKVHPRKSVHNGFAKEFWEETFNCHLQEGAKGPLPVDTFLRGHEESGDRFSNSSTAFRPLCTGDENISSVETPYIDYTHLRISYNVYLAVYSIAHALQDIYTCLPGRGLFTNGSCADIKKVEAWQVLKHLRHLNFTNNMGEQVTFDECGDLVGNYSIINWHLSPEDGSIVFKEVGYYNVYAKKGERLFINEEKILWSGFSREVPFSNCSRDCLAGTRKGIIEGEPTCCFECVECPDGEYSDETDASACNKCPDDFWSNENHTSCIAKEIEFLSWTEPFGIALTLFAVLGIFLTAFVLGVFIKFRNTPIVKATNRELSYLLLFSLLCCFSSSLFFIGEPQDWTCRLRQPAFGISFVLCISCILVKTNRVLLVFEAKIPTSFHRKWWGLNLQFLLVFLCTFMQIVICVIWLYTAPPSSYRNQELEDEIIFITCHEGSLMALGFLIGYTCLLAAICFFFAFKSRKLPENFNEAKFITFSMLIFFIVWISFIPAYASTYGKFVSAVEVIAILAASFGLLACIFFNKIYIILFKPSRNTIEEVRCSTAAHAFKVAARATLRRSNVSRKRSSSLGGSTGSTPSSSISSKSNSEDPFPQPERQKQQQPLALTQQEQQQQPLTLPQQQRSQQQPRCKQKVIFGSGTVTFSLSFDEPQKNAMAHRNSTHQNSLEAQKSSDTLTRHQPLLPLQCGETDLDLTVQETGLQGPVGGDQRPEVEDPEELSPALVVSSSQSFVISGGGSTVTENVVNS
Assay: Evaluation of CaSR agonistic activity (293E cells transfected with hCaSR, Ca2+ fluorescent indicator, FLIPR)
Details: 293E cells expressing human CaSR; concentration giving activation rate 50%
pEC50: −log10 of the molar value.
Tag: Fulfilled if measured pEC50 is not below 6, Not fulfilled if it is.

Prompt: hey, is pEC50 for this one >= 6? N[C@@H](CCC(=O)Nc1cc(S(=O)(=O)O)ccc1Cl)C(=O)O [Compound No. 37, N^5-(2-chloro-5-sulfophenyl)-L-glutamine]
Response: Fulfilled

Prompt: Reported pEC50 reaches at least 6 for Cc1c(Cl)cc(NC(=O)CC[C@H](N)C(=O)O)cc1S(=O)(=O)O [Compound No. 21] ?
Response: Fulfilled

Prompt: Does the reported pEC50 for N[C@@H](CCC(=O)Nc1ccc(S(=O)(=O)O)c(I)c1)C(=O)O [Compound No. 40, N^5-(3-iodo-4-sulfophenyl)-L-glutamine] fall at or above the 6 mark?
Response: Not fulfilled

Prompt: Could you tell me if the measured pEC50 of N[C@@H](COC(=O)Nc1cccc(S(=O)(=O)O)c1)C(=O)O [Compound No. 13] reaches 6 or more?
Response: Fulfilled

Prompt: Item N[C@@H](CCC(=O)Nc1ccc(S(=O)(=O)O)c(Cl)c1)C(=O)O [Compound No. 38, N^5-(3-chloro-4-sulfophenyl)-L-glutamine] with pEC50 of 6 or above?
Response: Not fulfilled

Prompt: Given CN(C(=O)CC[C@H](N)C(=O)O)c1cccc(S(=O)(=O)O)c1 [Compound No. 12] , state whether its pEC50 is at least 6.
Response: Fulfilled

Prompt: Textbook exercise: given the entry N[C@@H](CCC(=O)Nc1cccc(S(=O)(=O)O)c1)C(=O)O [Compound No. 1, N^5-(3-sulfophenyl)-L-glutamine] , state whether its pEC50 is greater than or equal to 6.
Response: Fulfilled

Prompt: Answer whether pEC50 of COc1ccc(S(=O)(=O)O)cc1NC(=O)CC[C@H](N)C(=O)O [Compound No. 3] is greater than or equal to 6.
Response: Fulfilled

Prompt: Form field: pEC50 at least 6? Entry: COc1c(NC(=O)OC[C@H](N)C(=O)O)cc(Cl)cc1S(=O)(=O)O [Compound No. 36]
Response: Not fulfilled

Prompt: Reported pEC50 reaches at least 6 for COP(=O)(O)c1cccc(NC(=O)CC[C@H](N)C(=O)O)c1 [Compound No. 17] ?
Response: Not fulfilled

Prompt: Dear colleague, could you confirm whether N[C@@H](COC(=O)Nc1cc(Cl)cc(S(=O)(=O)O)c1O)C(=O)O [Compound No. 34] has pEC50 at or above 6?
Response: Fulfilled

Prompt: Test whether the compound N[C@@H](CCC(=O)Nc1ccc(O)c(S(=O)(=O)O)c1)C(=O)O [Compound No. 11] records pEC50 of 6 or higher.
Response: Fulfilled

Prompt: Check the entry Cc1c(Cl)cc(NC(=O)OC[C@H](N)C(=O)O)cc1S(=O)(=O)O [Compound No. 33] : does pEC50 equal or exceed 6?
Response: Fulfilled

Prompt: For this compound, is measured pEC50 6 or higher? N[C@@H](CCC(=O)Nc1cccc(S(=O)(=O)O)c1O)C(=O)O [Compound No. 10]
Response: Fulfilled
